- method description: inhibitors of poly I:C-induced TLR3 signaling, primary screen, cell-based, poly I:C stimulus, luciferase, 10K MLSCN set (AID 602277)
- experimental parameters: HEK293-TLR3 RL24 IRF3 luciferase reporter, at 10 µM, stronger effect = higher value
This listing pairs molecules with measured inhibition.
Give the value, in units of %, as a plain number.

Recorded inhibition, per entry:
CC1CCN(S(=O)(=O)c2cccc(C(=O)Nc3ccccn3)c2)CC1 | 23.9
CCOC(=O)C1CCN(c2c(NCCN3CCN(c4ccccc4)CC3)c(=O)c2=O)CC1 | 28.4
CC(C)C(NC(=O)OCc1ccccc1)C(=O)OCC(=O)NCc1ccco1 (configuration not stated) | 5.27
CCOc1cccc(OCCCCn2ccnc2)c1 | 21.4

Query: Tell me the measured inhibition of CCOC(=O)N1CCN(Cc2nc3c(c(=O)n(C)c(=O)n3C)n2Cc2ccccc2)CC1 , please.
Reply: 14.8

Query: Tell me the measured inhibition of CCOc1cccc(C(=O)N(Cc2ccc(F)cc2)C2CCS(=O)(=O)C2)c1 (configuration not stated) , please.
Reply: 40.1

Query: Tell me the measured inhibition of CCS(=O)(=O)N1CCCC(c2nc(-c3cccc(OC)c3)no2)C1 (configuration not stated) , please.
Reply: -59.2

Query: Tell me the measured inhibition of CCSc1nnc(NC(=O)C2CCCN(S(=O)(=O)c3cnc[nH]3)C2)s1 (configuration not stated) , please.
Reply: 21.5

Query: Tell me the measured inhibition of CCCC(=O)Nc1c2c(nn1-c1ccc(OC)cc1)CS(=O)C2 (configuration not stated) , please.
Reply: 22.2

Query: Tell me the measured inhibition of CCN(c1ccc2c(c1)OCO2)S(=O)(=O)c1cc(Br)cc2c1N(C(=O)C1CC1)CC2 , please.
Reply: 21.6

====

- method description: inhibitors of E-selectin induction by TNFa, primary screen, imaging, HUVEC, immunofluorescence, MLSMR starter and 10KST1 sets (AID 487);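 note: signal is fraction of cell area covered by stained E-selectin grains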
- experimental parameters: HUVEC TNFalpha-induced E-selectin immunofluorescence imaging, at 2 µM; stronger effect = higher value
This listing pairs compounds with measured inhibition.
Give the value, in units of %, as a plain number.

Recorded inhibition, per entry:
O=C(O)C1C2C=CC3(CN(C4CCCC4)C(=O)C13)O2 (centres undefined) | -23.3
c1ccc(CCn2nnnc2C(c2cccs2)N2CCOCC2)cc1 (centres undefined) | -74.9
COc1ccc(C2C(C(C)=O)=C(O)C(=O)N2c2nccs2)cc1OC (centres undefined) | -2.2
CCOC(=O)c1cnn(-c2sc(C(=O)OCC)c(C)c2C(=O)OCC)c1N | -5.8

Next item in the queue.
Query: Tell me the measured inhibition of c1ccc(Cn2nnnc2CN2CCN(c3ncccn3)CC2)cc1 , please.
Reply: -11.1

====

- method description: inhibitors of TNFa-induced NFkB p65 translocation, primary screen, imaging, HUVEC, MLSMR starter and 10KST1 sets (AID 438);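 note: compound added about 3h40 before a 20 min TNFalpha stimulation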
- experimental parameters: HUVEC TNFa-induced p65 nuclear translocation; measured here: nuclei count (cytotoxicity indicator), at 2.08 µM
measured metric: cell count

Recorded cell count, per entry:
CC1=C(C(=O)Nc2ccccc2C)C2(CCCC2)C(C(N)=O)C(=O)N1 (stereo unspecified) | 683
O=C(CSc1nnc(-c2ccncc2)o1)Oc1ccccc1 | 662
Cc1cc(C(=O)NCc2ccc(S(N)(=O)=O)cc2)cs1 | 321
O=C(O)C1[C@H]2C(=O)N(Cc3cccs3)C[C@]23C=C[C@H]1O3 (stereo partly specified) | 598
Cn1c(NC(=O)c2cccc(Cn3cc(Cl)cn3)c2)nc2ccccc21 | 778

Next item in the queue.
Query: Tell me the measured cell count of Cc1ccccc1Cn1cc(/C=N/n2cnnc2)c2ccccc21 , please.
Reply: 416

====

- method description: inhibitors of TNFa-induced NFkB p65 translocation, primary screen, imaging, HUVEC, MLSMR starter and 10KST1 sets (AID 438);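 note: compound added about 3h40 before a 20 min TNFalpha stimulation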;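 for inhibition: signal is the nuclear over cytoplasmic p65 intensity ratio per well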
- experimental parameters: HUVEC TNFa-induced p65 nuclear translocation; at 2 µM, stronger effect = higher value, 0% TNFa-plus-vehicle, 100% no-TNFa wells
This listing pairs molecules with measured inhibition.
Give the value, in units of %, as a plain number.

Cc1ccc(NC2=NCC(=O)N2c2ccc3c(c2)OCCO3)c(C)c1 | -14.4
CCOc1ccc(-c2nc(C#N)c(NCC(C)C)o2)cc1 | -4
O=C(CN1C(=O)CCS(=O)(=O)c2ccccc21)NCc1ccc(F)cc1 | -7.7
CCC(C)NC(=O)c1cn(CC)c2ccc(S(=O)(=O)N(C)C)cc2c1=O (stereo not given) | -11.6
CC(C)(CSc1nncn1N)NS(=O)(=O)c1ccc(Cl)cc1 | -4.4

Next item in the queue.
Query: Tell me the measured inhibition of CCOc1cc2[nH]c(=O)n(CCCCC(=O)NCc3ccco3)c(=O)c2cc1OCC , please.
Reply: -17.9

====

This listing pairs compounds with measured fluorescence slope.
- assay system: Muscarinic acetylcholine receptor M4 (Homo sapiens) (UniProt P08173)
- Sequence (P08173 whole entry, looked up): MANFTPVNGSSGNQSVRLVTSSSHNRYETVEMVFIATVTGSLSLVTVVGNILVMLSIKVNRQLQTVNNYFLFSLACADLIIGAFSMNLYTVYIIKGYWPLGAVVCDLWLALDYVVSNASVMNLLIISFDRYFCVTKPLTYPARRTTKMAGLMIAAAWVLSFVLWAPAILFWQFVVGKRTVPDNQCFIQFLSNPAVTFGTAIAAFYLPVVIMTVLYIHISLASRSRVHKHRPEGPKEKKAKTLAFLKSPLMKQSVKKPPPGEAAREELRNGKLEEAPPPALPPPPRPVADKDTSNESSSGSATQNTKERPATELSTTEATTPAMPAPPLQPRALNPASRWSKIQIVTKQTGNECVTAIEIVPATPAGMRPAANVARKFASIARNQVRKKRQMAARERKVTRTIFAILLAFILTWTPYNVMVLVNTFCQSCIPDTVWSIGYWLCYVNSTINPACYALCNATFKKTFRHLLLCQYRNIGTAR
- method description: compounds altering M4/GIRK thallium flux, either direction, primary screen, M4 allosteric agonist project, cell-based, HEK293 M4/GIRK, BTC-AM (AID 625);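 note: thallium influx through GIRK channels coupled to M4 in HEK293 cells with BTC-AM dye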
- experimental parameters: at 10 µM, actives lie on both sides
Active and inactive are the calls of the source.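 Rule for the calls: active = fluorescence slope after compound addition differing from the mean of all tested samples at 99.7% confidence, mostly higher but some lower; inactive = the rest.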

Recorded fluorescence slope, per entry:
CCN(CC)Cc1cc(C(C)=O)ccc1OCC(C)C | 0.00565 (inactive)
CSc1nc2[nH]c3c(c2c2ncnn12)CCCC3 | 0.00321 (inactive)
Cc1nnc2n(-c3ccccc3)c(=O)c3c4c(sc3n12)COC(C)(C)C4 | 0.00589 (inactive)
CCOC(=O)CC(=O)CSc1nnc2sc3ccccc3n12 | 0.0062 (inactive)
CCc1nc(N2CCN(C(=O)c3ccccc3)CC2)c(C#N)c2c1COC(C)(C)C2 | 0.00455 (inactive)
OCCOCCNc1ncnc2c1cnn2-c1ccc(Cl)cc1 | 0.00585 (inactive)

Next item in the queue.
Query: Tell me the measured fluorescence slope of COCCNc1nc2c(c(=O)n(C)c(=O)n2C)n1Cc1cccc(C(F)(F)F)c1 , please.
Reply: 0.00743 (inactive)

====

- method description: inhibitors of TNFa-induced NFkB p65 translocation, primary screen, imaging, HUVEC, MLSMR starter and 10KST1 sets (AID 438);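 note: compound added about 3h40 before a 20 min TNFalpha stimulation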
- experimental parameters: HUVEC TNFa-induced p65 nuclear translocation; measured here: nuclei count (cytotoxicity indicator), at 2.08 µM
Rule: cell count under 500 gives NOT MET, otherwise MET.

Illustrative cases are given below, each with its answer.
CC(NC(=O)Nc1ncccn1)(C(F)(F)F)C(F)(F)F | MET
CCCc1nc2n[nH]c(N)c2c2c1COC(C)(C)C2 | MET
COc1cccc(OC)c1OCCNCCO | MET

Query: Evaluate CCN(CC)CCNc1ncnc2c1[nH]c1ccc(OC)cc12 : cell count at minimum 500?
Reply: MET

Query: Evaluate COc1cccc(N2CCN(C(=O)c3ccc(=O)oc3)CC2C)c1 (stereo not drawn) : cell count at minimum 500?
Reply: MET

Query: Evaluate COc1ccc(C(=O)Nc2ccccc2C(=O)NCCN2CCOCC2)cc1 : cell count at minimum 500?
Reply: NOT MET

Query: Evaluate CCC(=O)Nc1cccc(-c2nnc(SCC(=O)NCc3ccco3)n2C)c1 : cell count at minimum 500?
Reply: MET

Query: Evaluate Cc1sc(NC(=O)CSc2nnc(COc3ccccc3)n2C)c(C#N)c1C : cell count at minimum 500?
Reply: MET

Query: Evaluate CC(NC(=O)COc1ccc(Br)cc1)C(=O)O (stereo not drawn) : cell count at minimum 500?
Reply: NOT MET

Query: Evaluate COc1cc(C(O)c2nc3ccccc3n2C)cc(OC)c1OC (stereo not drawn) : cell count at minimum 500?
Reply: NOT MET

Query: Evaluate Cn1c(Cl)nc2ccccc21 : cell count at minimum 500?
Reply: NOT MET

Query: Evaluate COC(=O)CSc1nc2c(c(=O)n(C)c(=O)n2C)n1CCC(C)C : cell count at minimum 500?
Reply: MET

Query: Evaluate CCn1c(SCC(=O)Nc2cc(C)ccc2C)nc2c(c1=O)SC(C)C2 (stereo not drawn) : cell count at minimum 500?
Reply: MET

Query: Evaluate COc1ccc(OC)c(-c2nc3c(C)n[nH]c(=O)c3[nH]2)c1 : cell count at minimum 500?
Reply: MET

Query: Evaluate CCOC(=O)c1c2c(c(=S)n(-c3ccccc3)c1N)CCC2 : cell count at minimum 500?
Reply: MET

Query: Evaluate CCOC(=O)CNS(=O)(=O)c1cc(-c2n[nH]c(=O)c3ccccc23)ccc1C : cell count at minimum 500?
Reply: MET

====

- method description: inhibitors of poly I:C-induced TLR3 signaling, primary screen, cell-based, poly I:C stimulus, luciferase, 10K MLSCN set (AID 602277)
- experimental parameters: HEK293-TLR3 RL24 IRF3 luciferase reporter, at 10 µM, stronger effect = higher value
measured metric: inhibition (%)
Give the value, in units of %, as a plain number.

Recorded inhibition, per entry:
O=C(Nc1ccc2c(c1)OCCO2)C1CCCN(S(=O)(=O)c2cnc[nH]2)C1 (stereo unspecified) | -6.55
O=S1(=O)C=C(Oc2ccc(F)cc2)c2ccccc21 | 7.32
O=C(Cn1ncc2c1-c1ccccc1OC2)N1CCc2ccccc21 | 1.51
Cc1cc(C)n2nc(S(=O)(=O)N(C)c3ccccc3)nc2n1 | 34.2
O=C(O)C1CCCN(S(=O)(=O)c2ccc(Cl)s2)C1 (stereo unspecified) | 33.8

Query: Tell me the measured inhibition of COC(=O)c1ccc(-n2nnnc2SCc2nn[nH]n2)cc1 , please.
Reply: -3.28

FYI, the data here is from PubChem BioAssay.
